B1: SMARCE1 (parent)
chain: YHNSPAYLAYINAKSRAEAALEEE

- Variants of: B1
- Procedure summary: protein stability index of a GFP-peptide fusion (GPS, HEK-293T) (PSI 1-6); higher = more stable;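 note: lentivirally expressed fusions sorted by FACS into six bins by GFP to DsRed ratio, PSI derived from sequencing read proportions per bin multiplied by bin number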
- Condition summary: c terminus: a fixed tail appended
Assay endpoint: protein stability index
Returns: the value as a bare number; no unit string appended.

Look over these answered cases.
1. P5R
2.99
2. L21N
2.46
3. S4E
2.89

Request: Identify the reported protein stability index for the following entry. `E23H`
Result: 2.13

Request: Tell me measured protein stability index for `I11K` please.
Result: 2.59

Request: Given `Y7G` , respond with its protein stability index.
Result: 2.31

Request: Let me know recorded protein stability index for `S15I` , thanks.
Result: 2.25

Request: Tell me its protein stability index given `Y1M` as the entry.
Result: 5.08
